assay_system: JAK3 (Homo sapiens, UniProt P52333)
Construct: endogenous in cells
Sequence (P52333 whole entry): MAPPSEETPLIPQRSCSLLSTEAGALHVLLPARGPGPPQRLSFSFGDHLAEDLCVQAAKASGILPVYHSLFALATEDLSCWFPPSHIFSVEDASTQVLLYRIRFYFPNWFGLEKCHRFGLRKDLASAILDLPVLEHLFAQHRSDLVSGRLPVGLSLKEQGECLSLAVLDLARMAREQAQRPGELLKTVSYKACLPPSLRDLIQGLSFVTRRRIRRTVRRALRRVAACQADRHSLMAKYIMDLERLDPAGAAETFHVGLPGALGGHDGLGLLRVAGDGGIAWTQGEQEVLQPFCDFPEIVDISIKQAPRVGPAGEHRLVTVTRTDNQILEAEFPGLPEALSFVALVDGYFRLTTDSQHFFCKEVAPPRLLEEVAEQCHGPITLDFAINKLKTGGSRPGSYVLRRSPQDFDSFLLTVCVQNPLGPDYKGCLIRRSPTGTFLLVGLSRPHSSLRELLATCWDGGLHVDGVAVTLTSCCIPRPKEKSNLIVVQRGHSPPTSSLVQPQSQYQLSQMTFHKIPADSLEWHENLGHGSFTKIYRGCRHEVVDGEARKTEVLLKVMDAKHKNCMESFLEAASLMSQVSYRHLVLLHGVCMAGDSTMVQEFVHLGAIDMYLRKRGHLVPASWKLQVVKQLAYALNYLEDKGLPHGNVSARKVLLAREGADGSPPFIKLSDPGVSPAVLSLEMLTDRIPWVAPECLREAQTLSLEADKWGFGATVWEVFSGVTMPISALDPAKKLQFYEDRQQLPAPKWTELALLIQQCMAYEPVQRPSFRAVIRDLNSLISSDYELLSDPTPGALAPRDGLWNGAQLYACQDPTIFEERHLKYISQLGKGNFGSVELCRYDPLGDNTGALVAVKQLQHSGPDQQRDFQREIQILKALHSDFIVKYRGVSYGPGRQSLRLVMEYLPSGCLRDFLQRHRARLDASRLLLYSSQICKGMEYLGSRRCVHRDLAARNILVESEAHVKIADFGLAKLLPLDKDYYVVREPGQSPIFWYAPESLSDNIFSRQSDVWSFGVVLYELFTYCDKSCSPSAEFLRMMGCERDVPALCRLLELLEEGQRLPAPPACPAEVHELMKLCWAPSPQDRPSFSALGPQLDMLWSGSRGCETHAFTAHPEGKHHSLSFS
experimental_protocol: kinobeads assay (competition with affinity matrix in mixed Molt4/Ramos cell lysate, dot blot detection), JAK3
experimental_parameters: activity level
pIC50: −log10 of the molar value.
Below: a set of entries, each annotated with reported pIC50.

{"columns": ["compound", "pIC50"],
 "data": [
  ["CS(=O)(=O)Nc1ccccc1Nc1nc(Nc2cc(C(=O)NCC#N)ccc2F)ncc1Cl [Example 25]", "> 7.00"],
  ["CS(=O)(=O)Nc1ccccc1Nc1nc(Nc2cc(-n3cnnn3)ccc2F)ncc1F [Example 1]", "> 7.00"],
  ["COCCNC(=O)c1ccc(F)c(Nc2ncc(Cl)c(Nc3ccccc3NS(C)(=O)=O)n2)c1 [Example 53]", "> 7.00"],
  ["CCNC(=O)c1ccc(F)c(Nc2ncc(Cl)c(Nc3ccccc3NS(=O)(=O)CC(F)(F)F)n2)c1 [Example 44]", "6.00 to 7.00"],
  ["CS(=O)(=O)Nc1ccccc1Nc1nc(Nc2cc(C(=O)N3CCCCC3)ccc2F)ncc1Cl [Example 17]", "> 7.00"],
  ["CC(C)NC(=O)c1ccc(F)c(Nc2ncc(F)c(Nc3ccccc3NS(C)(=O)=O)n2)c1 [Example 31]", "6.00 to 7.00"],
  ["CC(C)NC(=O)c1ccc(F)c(Nc2ncc(Cl)c(Nc3ccccc3NS(C)(=O)=O)n2)c1 [Example 16]", "> 7.00"],
  ["CS(=O)(=O)Nc1ccccc1Nc1nc(Nc2ccc(N3CCOCC3)cc2F)ncc1F [Example 2]", "6.00 to 7.00"]
]}
